pIC50: −log10 of the molar value.
From various publications: pIC50 for Neprilysin (Oryctolagus cuniculus, UniProt P08049).
Readout kind: pIC50

Ask: Using the record for CC(C)C(C(=O)NC(Cc1ccc(O)cc1)C(=O)O)C(S)CCc1ccccc1 (stereo unspecified) , report its pIC50.
Reply: 7.28

Ask: What would you report for O=C(O)CCNC(=O)C(Cc1ccccc1)CC(Cc1ccccc1)C(=O)O (stereo unspecified) ?
Reply: 7.74

Ask: Repeat for the following compound: CC(C)C[C@@H](C(=O)O)C(=O)N[C@H](CS)Cc1ccccc1 (racemic)
Reply: 8.82

A: O=C(O)CC(=O)N[C@@H](CC(=O)NO)Cc1ccccc1
B: CCC(C)C(S)CC(Cc1ccccc1)C(=O)N[C@H](Cc1ccc(O)cc1)C(=O)O (stereo partly specified)
C: O=C(O)[C@H](Cc1ccccc1)N[C@@H](Cc1ccccc1)C(=O)NC[C@H](O)C(=O)O
D: O=C(NCC(=O)N1[C@@H](c2ccccc2)CC[C@H]1C(=O)O)[C@H](S)Cc1ccccc1
E: O=C(NCC(=O)N1[C@@H](c2cccc(O)c2)CC[C@H]1C(=O)O)C(S)Cc1ccc(F)cc1 (stereo partly specified)
Ask: Task for the reader: rank each entry by its pIC50, from the minimum upward. Response format: the labels, sorted as the prompt asks.
Reply: B, C, E, D, A

1: O=C(O)[C@H](CCc1ccccc1)N[C@@H](Cc1ccccc1)C(=O)NC[C@H](O)C(=O)O (stereo in doubt; 6e)
2: CC(C)[C@H](NC(=O)[C@@H](S)Cc1ccccc1)C(=O)N1CCCC1C(=O)O (stereo partly specified)
3: CC[C@H](C)[C@H](NC(=O)[C@@H](S)C(C)C)C(=O)N1C(C(=O)O)CC2CCCCC21 (stereo partly specified)
Ask: Given 3 compounds, produce a descending ranking by pIC50. Return value: ordered labels per request.
Reply: 1, 2, 3
(1: 7.82, 2: 7.62, 3: 6.76)

1: C[C@H](NC(=O)[C@@H](S)Cc1ccccc1)C(=O)N1CCCCC1C(=O)O (stereo partly specified)
2: CC(C)CC(S)CC(=O)NC(Cc1ccccc1)C(=O)NC(Cc1ccc(O)cc1)C(=O)O (stereo unspecified)
Ask: Field: lower recorded pIC50 (choose 1 or 2 ) Could you answer with the label of the item you picked?
Reply: 2

a: CC[C@@H](C)[C@H](NC(=O)[C@@H](S)C(C)OCc1ccccc1)C(=O)N[C@@H](Cc1ccc(O)cc1)C(=O)O (stereo partly specified)
b: O=C(NC1(C(=O)O)CCCC1)[C@H](Cc1ccccc1)NC(=O)[C@@H](S)Cc1ccccc1
c: CCC(C)C(NC(=O)C(Cc1ccccc1)C(C)S)C(=O)NC(Cc1ccc(O)cc1)C(=O)O (stereo unspecified)
d: O=C(O)CC(=O)N[C@H](CC(=O)NO)Cc1ccccc1
Ask: Order each entry by recorded pIC50, climbing from the minimum. Answer format: list of labels, ordered as asked.
Reply: c, b, a, d

A: CCC(C)C(S)CC(C(=O)NC(Cc1ccc(O)cc1)C(N)=O)C(C)CC (stereo unspecified)
B: C[C@H](NC(=O)[C@@H](S)Cc1ccccc1)C(=O)O
C: CCC[C@H](CC1(C(=O)Nc2nnc(CC)s2)CCCC1)C(=O)O
D: O=C(NCC(=O)N1[C@@H](c2ccccc2)CC[C@H]1C(=O)O)[C@@H](S)Cc1ccccc1
E: Cc1ccccc1[C@@H]1CCC(C(=O)O)N1C(=O)CNC(=O)[C@@H](S)Cc1ccccc1 (single isomer, unassigned; 18)
Ask: Form: Sort by [pIC50] Order [ ascending ] Answer by listing the labels in the requested order.
Reply: A, E, C, B, D
(A: 6.44, E: 7.77, C: 7.99, B: 8.40, D: 8.80)

I: CC(C)[C@H](NC(=O)[C@@H](S)Cc1ccccc1)C(=O)N[C@@H](Cc1ccc(O)cc1)C(=O)O
II: Cc1cccc([C@H]2CC[C@@H](C(=O)O)N2C(=O)CNC(=O)[C@@H](S)Cc2ccccc2)c1
III: CC[C@H](C)C(S)C(=O)NCC(=O)N1[C@@H](c2ccccc2)CC[C@H]1C(=O)O (stereo partly specified)
Ask: rank_up(items): orders items by reported pIC50 in ascending numerical order. Answer by listing the labels in the order asked for.
Reply: III, I, II

A: O=C(NCC(=O)N1[C@@H](c2ccccc2O)CC[C@H]1C(=O)O)[C@@H](S)Cc1ccc(O)cc1
B: O=C(O)[C@H](CO)NC(=O)[C@H](Cc1ccccc1)N[C@@H](CCc1ccccc1)C(=O)O
C: O=C(NCC(=O)N1[C@@H](c2cccc(O)c2)CC[C@H]1C(=O)O)[C@@H](S)Cc1ccc(O)cc1
Ask: Order each entry by recorded pIC50, climbing from the minimum. State the ranking by listing the labels in the requested order.
Reply: B, A, C

I: NCCCCC(S)C(=O)NCC(=O)N1[C@@H](c2ccccc2)CC[C@H]1C(=O)O (stereo partly specified)
II: CC[C@@H](C)[C@H](NC(=O)[C@@H](S)Cc1ccccc1)C(=O)N1CCCC1C(=O)O (stereo partly specified)
III: O=C(O)[C@H](Cc1ccc2c(c1)oc1ccccc12)NCP(=O)(O)O
Ask: Rank items: key pIC50, increasing. Labels, requested order.
Reply: III, I, II
(III: 5.64, I: 6.30, II: 7.62)

###

From various publications: IC50 for Neprilysin (Oryctolagus cuniculus, UniProt P08049).
Readout kind: IC50 (nM)

Ask: Quick one: IC50 of C[C@@H](C(=O)O)C(=O)N[C@H](CS)Cc1ccccc1 (racemic) ?
Reply: 0.54

1: C[C@H](NC(=O)[C@@H](S)Cc1ccccc1)C(=O)N1CCC[C@H]1C(=O)O
2: CCC(C)C(CC(S)Cc1ccccc1)C(=O)O (stereo unspecified)
3: CC(OCc1ccccc1)[C@H](NC(=O)[C@@H](S)Cc1ccccc1)C(=O)N[C@@H](Cc1ccc(O)cc1)C(=O)O (stereo partly specified)
4: O=C(O)CCCCNC(=O)C(CC(=O)NO)Cc1ccccc1 (stereo unspecified)
5: C[C@H](NC(=O)[C@H](S)Cc1ccccc1)C(=O)N1CCC[C@H]1C(=O)O
Ask: Sort these molecules on IC50 so the largest reading comes first. Form field (ranking): labels in requested order.
Reply: 2, 3, 4, 1, 5
(2: 250 nM, 3: 100 nM, 4: 51.5 nM, 1: 3.8 nM, 5: 1.3 nM)

###

From various publications: IC50 for Neprilysin (Oryctolagus cuniculus).
Readout kind: IC50 (nM)

Please review the entries below; each comes with its answer.
Ask: Tell me the measured IC50 of CC(S)C(Cc1ccccc1)C(=O)NCC(=O)O (stereo not given) , please.
Reply: 50

Ask: Another compound: CN(O)C(=O)C[C@@H](Cc1ccccc1)NC(=O)CC(=O)O
Reply: 1730

Ask: Entry COc1ccc(C[C@H](S)C(=O)NCC(=O)N2[C@@H](c3ccccc3OC)CC[C@H]2C(=O)O)cc1 please
Reply: 2.5

1: O=C(O)CC(=O)N[C@H](Cc1ccccc1)C(=O)NO
2: CCC(C)C(CC(S)CCc1ccccc1)C(=O)NC(Cc1ccc(O)cc1)C(=O)O (stereo not given)
Ask: Could you tell me which of these two has the smaller IC50 figure? First: 1 Second: 2 Kindly give the label for the entry you pick.
Reply: 2

###

Reported pIC50 on Neprilysin (Oryctolagus cuniculus) for assorted compounds, compiled from publications.
pIC50: −log10 of the molar value.
Readout kind: pIC50

// known answers, use as guide
Ask: What pIC50 value was documented for this compound, O=C(O)c1ccc(CC(S)C(=O)NCC(=O)N2[C@@H](c3ccccc3O)CC[C@H]2C(=O)O)cc1 (stereo not given in full) ?
Reply: 7.21

Ask: Follow-up item: O=C(NCC(=O)N1[C@@H](c2ccccc2O)CC[C@H]1C(=O)O)[C@@H](S)Cc1ccccc1
Reply: 9.00

Ask: Input COCC[C@H](CC1(C(=O)NCCCc2ccc(Cl)cc2)CCCC1)C(=O)O
Reply: 9.10

A: CC(C(=O)O)C(=O)NC(Cc1ccccc1)C(=O)NO (stereo in doubt; 8)
B: CCCCC(NC(=O)C(Cc1ccccc1)C(C)S)C(=O)NC(Cc1ccc(O)cc1)C(=O)O (stereo not given)
Ask: Of A and B , whose reported pIC50 is numerically smaller? Write down the label of the entry you select.
Reply: A

###

pIC50: −log10 of the molar value.
The compounds below each have a reported pIC50 tested on Neprilysin (Oryctolagus cuniculus, UniProt P08049); the values come from various publications.
Sequence (P08049 whole entry): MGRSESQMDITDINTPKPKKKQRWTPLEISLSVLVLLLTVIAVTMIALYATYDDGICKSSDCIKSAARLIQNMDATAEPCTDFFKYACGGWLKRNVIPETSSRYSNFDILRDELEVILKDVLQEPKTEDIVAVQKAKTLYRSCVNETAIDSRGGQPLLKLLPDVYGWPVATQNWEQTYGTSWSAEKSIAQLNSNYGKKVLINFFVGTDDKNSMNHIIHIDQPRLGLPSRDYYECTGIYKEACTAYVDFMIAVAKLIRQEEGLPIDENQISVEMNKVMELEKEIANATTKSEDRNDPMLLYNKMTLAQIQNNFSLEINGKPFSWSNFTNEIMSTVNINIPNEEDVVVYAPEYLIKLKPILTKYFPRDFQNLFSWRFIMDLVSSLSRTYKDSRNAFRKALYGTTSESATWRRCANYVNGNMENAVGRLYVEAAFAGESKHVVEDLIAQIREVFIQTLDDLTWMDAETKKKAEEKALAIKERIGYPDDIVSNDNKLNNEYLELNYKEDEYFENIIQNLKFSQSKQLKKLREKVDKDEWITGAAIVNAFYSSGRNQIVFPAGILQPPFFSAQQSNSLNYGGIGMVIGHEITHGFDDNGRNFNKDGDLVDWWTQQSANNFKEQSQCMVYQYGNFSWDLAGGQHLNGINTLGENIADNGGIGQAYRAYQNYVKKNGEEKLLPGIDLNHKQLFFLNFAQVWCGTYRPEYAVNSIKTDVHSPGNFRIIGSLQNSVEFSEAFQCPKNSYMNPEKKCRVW
Readout kind: pIC50

Recorded pIC50, per entry:
Ask: Requested field: pIC50. Item: O=C(O)CCCNC(=O)C(CC(=O)NO)Cc1ccccc1 (stereo not drawn)
Reply: 7.56

Ask: Proceed to CCC(C)C1CC(Cc2ccccc2)SC1=O (stereo not drawn)
Reply: 6.66

Ask: Repeat with C[C@H](NC(=O)[C@@H](CC(=O)NO)Cc1ccccc1)C(=O)O
Reply: 7.34

Ask: Moving on to Cc1ccc([C@H]2CC[C@@H](C(=O)O)N2C(=O)CNC(=O)[C@@H](S)Cc2ccccc2)cc1
Reply: 7.90

Ask: Subsequent entry: C[C@H](NC(=O)[C@@H](S)CCc1ccccc1)C(=O)N1CCCC1C(=O)O (stereo partly drawn)
Reply: 7.70

a: C[C@H](C(=O)O)C(=O)N[C@H](CS)Cc1ccccc1
b: CC(CC(=O)O)NC(=O)C(CC(=O)NO)Cc1ccccc1 (stereo in doubt; C)
Ask: Which gives the smaller pIC50 number: a or b ? Your choice should be expressed through its label.
Reply: b

1: CC(NC(=O)C(CC(=O)NO)Cc1ccccc1)C(C)C(=O)O (stereo in doubt; 11A)
2: CC[C@H](C)[C@H](S)C(=O)N[C@@H](Cc1ccccc1)C(=O)N[C@@H](Cc1ccc(O)cc1)C(=O)O
3: CC(C)C(NC(=O)C(Cc1ccccc1)C(C)S)C(=O)NC(Cc1ccc(O)cc1)C(=O)O (stereo not drawn)
Ask: Order field: pIC50 | Direction: descending (largest first) Lab note: final answer is the ordered label list.
Reply: 2, 1, 3

I: O=C(O)[C@H](O)CNC(=O)[C@H](Cc1ccccc1)N[C@@H](CCc1ccccc1)C(=O)O
II: CC[C@H](C)[C@H](NC(=O)[C@@H](S)Cc1ccccc1)C(=O)N[C@@H](Cc1ccc(O)cc1)C(=O)O
III: Cc1ccccc1[C@@H]1CCC(C(=O)O)N1C(=O)CNC(=O)[C@@H](S)Cc1ccc(O)cc1 (single isomer, unassigned)
Ask: Ranking field: pIC50; order: falling. When ranking, write the labels in the order the request describes.
Reply: II, III, I

P: O=C(O)[C@H](Cc1ccc(O)cc1)NC(=O)[C@H](Cc1ccccc1)NC(=O)[C@@H](S)Cc1ccccc1
Q: C[C@H](NC(=O)[C@@H](S)Cc1ccccc1)C(=O)N1[C@@H](c2ccccc2)CC[C@H]1C(=O)O
R: O=C(O)[C@H](CSCc1ccccc1)NC(=O)[C@H](Cc1ccccc1)NC(=O)[C@@H](S)Cc1ccccc1
Ask: Rank the 3 compounds: largest pIC50 first, smallest last. Reply with the labels, ordered as the question asks.
Reply: P, Q, R
(P: 8.54, Q: 8.00, R: 7.40)
